Where do the numbers come from? From patent US11109593B2.

- Tested on: Echinochloa crus-galli
- procedure-summary: Test Example 2: herbicidal effect test by treatment during growing period in paddy rice cultivation (seven days after seeding)
- Type: in vivo
- experimental-conditions: 120 g/10a active ingredient, assessed 14 days after treatment, dry weight vs untreated area
Reported Herbicidal rate (%) Echinochloa crus-galli values follow for various molecules
readout: Herbicidal rate (%) Echinochloa crus-galli

molecule: Cc1c(Cc2ccccc2N(S(=O)(=O)C(F)(F)F)S(=O)(=O)C(F)(F)F)c(=O)on1CC1(C)CO1 (stereo not drawn) [Compound 1-1051]
tested-target: Echinochloa crus-galli
experimental-result: 90
--
molecule: CSCCn1oc(=O)c(Cc2ccccc2N(S(C)(=O)=O)S(=O)(=O)C(F)(F)F)c1C [Compound 1-900]
tested-target: Echinochloa crus-galli
experimental-result: 90
--
molecule: CCC(C)n1oc(=O)c(Cc2ccccc2N(C(=O)c2ccc(C)cc2)S(=O)(=O)C(F)(F)F)c1C (stereo not drawn) [Compound 1-494]
tested-target: Echinochloa crus-galli
experimental-result: 90
--
molecule: Cc1c(Cc2ccccc2NS(=O)(=O)C(F)(F)F)c(=O)on1C(C)c1ccccc1Cl (stereo not drawn) [Compound 1-205]
tested-target: Echinochloa crus-galli
experimental-result: 50
--
molecule: Cc1c(Cc2ccccc2N(S(=O)(=O)C(F)(F)F)S(=O)(=O)C(F)(F)F)c(=O)on1CC[S+](C)[O-] (stereo not drawn) [Compound 1-1005]
tested-target: Echinochloa crus-galli
experimental-result: 90
--
molecule: Cc1c(Cc2ccccc2NS(=O)(=O)C(F)(F)F)c(=O)on1C(C)C1CC1 (stereo not drawn) [Compound 1-144]
tested-target: Echinochloa crus-galli
experimental-result: 90
--
molecule: Cc1c(Cc2ccccc2N(S(=O)(=O)C(F)(F)F)S(=O)(=O)C(F)(F)F)c(=O)on1CCC(C)C [Compound 1-974]
tested-target: Echinochloa crus-galli
experimental-result: 100
--
molecule: Cc1ccc(Cn2oc(=O)c(Cc3ccccc3N(S(=O)(=O)C(F)(F)F)S(=O)(=O)C(F)(F)F)c2C)cc1 [Compound 1-1018]
tested-target: Echinochloa crus-galli
experimental-result: 40
--
molecule: Cc1c(Cc2ccccc2N(S(=O)(=O)C(F)(F)F)S(=O)(=O)C(F)(F)F)c(=O)on1Cc1ccccc1F [Compound 1-1012]
tested-target: Echinochloa crus-galli
experimental-result: 60
--
molecule: CCC(c1ccccc1)n1oc(=O)c(Cc2ccccc2NS(=O)(=O)C(F)(F)F)c1C (stereo not drawn) [Compound 1-211]
tested-target: Echinochloa crus-galli
experimental-result: 90
--
molecule: COCC(C)n1oc(=O)c(Cc2ccccc2N(C(=O)OCc2ccccc2)S(=O)(=O)C(F)(F)F)c1C (stereo not drawn) [Compound 1-790]
tested-target: Echinochloa crus-galli
experimental-result: 90
--
molecule: Cc1c(Cc2ccccc2NS(=O)(=O)C(F)(F)F)c(=O)on1Cc1ccsc1 [Compound 1-232]
tested-target: Echinochloa crus-galli
experimental-result: 70
--
molecule: COCC(C)n1oc(=O)c(Cc2ccccc2N(C(C)=O)S(=O)(=O)C(F)(F)F)c1C (stereo not drawn) [Compound 1-304]
tested-target: Echinochloa crus-galli
experimental-result: 90
--
molecule: C=CCOC(=O)N(c1ccccc1Cc1c(C)n(C(C)CC)oc1=O)S(=O)(=O)C(F)(F)F (stereo not drawn) [Compound 1-706]
tested-target: Echinochloa crus-galli
experimental-result: 90
--
molecule: Cc1c(Cc2ccccc2NS(=O)(=O)C(F)(F)F)c(=O)on1Cc1ccc(F)cc1 [Compound 1-183]
tested-target: Echinochloa crus-galli
experimental-result: 80
